TARGET_OR_TEST_SYSTEM: human protease activated receptor 1 (PAR1) (Homo sapiens, UniProt P25116)
Construct: the cell stably expresses the endogenous human PAR1 receptor and the endogenous purinergic receptor P2Y2; endogenous in cells
TEST_SUMMARY: Cellular functional in vitro test (aequorin luminescence, PAR1 test cell)
CONDITION_CONTEXT: recombinant HEK293-derived cell line expressing aequorin; PAR1 agonist added at its EC50 5 minutes after test substance
READOUT: IC50

Below, each entry is followed by its recorded IC50 result.
INSERT INTO assay_data (molecule, result) VALUES
  ('CC(C)c1nnc(C2CC(c3ccc(OC(F)(F)F)cc3)CN(C(=O)N3CCOCC3)C2)s1 (racemic) [Example 494]', '5.67 nM'),
  ('O=C(N1CCOCC1)N1CC(c2ccc(C(F)(F)F)cc2)CC(c2noc(-c3cccc(F)c3)n2)C1 (racemic) [Example 159]', '4.61 nM'),
  ('O=C(N1CC(c2ccc(OC(F)(F)F)cc2)CC(c2nc(C3CC3)no2)C1)N1CCC(F)(F)C1 (racemic) [Example 144]', '8.51 nM'),
  ('O=C(N1CCOCC1)N1CC(c2cccc(C(F)(F)F)c2)CC(c2nc(-c3cc(F)ccc3F)no2)C1 (stereo not shown) [Example 356]', '2.73 nM'),
  ('O=C(N1CCOCC1)N1CC(c2ccc(C(F)(F)F)cc2)CC(c2nc(-c3cccnc3)cs2)C1 (racemic) [Example 119]', '68 nM'),
  ('O=C(N1CCOCC1)N1CC(c2ccc(OC(F)(F)F)cc2)CC(c2nnc(-c3ccccc3)s2)C1 (racemic) [Example 495]', '3.51 nM');

Continue with the molecule presented below.
What is its IC50 for human protease activated receptor 1 (PAR1) (Homo sapiens, UniProt P25116)? Entry: Cc1cc(C2CC(c3nc(-c4cccc(F)c4)no3)CN(C(=O)N3CCC(O)CC3)C2)ccc1OC(F)(F)F (racemic) [Example 229]
1.72 nM

---

TARGET_OR_TEST_SYSTEM: human protease activated receptor 1 (PAR1) (Homo sapiens)
Construct: the cell stably expresses the endogenous human PAR1 receptor and the endogenous purinergic receptor P2Y2; endogenous in cells
Sequence (P25116 22-425): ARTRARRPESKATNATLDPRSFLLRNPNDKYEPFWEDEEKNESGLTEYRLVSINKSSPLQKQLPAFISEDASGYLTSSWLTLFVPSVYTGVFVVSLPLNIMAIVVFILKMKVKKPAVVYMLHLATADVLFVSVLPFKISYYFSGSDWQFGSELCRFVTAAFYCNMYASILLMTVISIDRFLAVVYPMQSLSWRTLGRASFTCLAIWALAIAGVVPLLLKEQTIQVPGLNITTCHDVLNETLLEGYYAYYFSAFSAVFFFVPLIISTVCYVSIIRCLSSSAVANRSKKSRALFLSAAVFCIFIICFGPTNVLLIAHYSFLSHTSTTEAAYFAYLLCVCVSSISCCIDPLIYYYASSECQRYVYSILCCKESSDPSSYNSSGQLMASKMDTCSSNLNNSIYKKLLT
TEST_SUMMARY: Cellular functional in vitro test (aequorin luminescence, PAR1 test cell)
CONDITION_CONTEXT: recombinant HEK293-derived cell line expressing aequorin; PAR1 agonist added at its EC50 5 minutes after test substance
Structures can show the parent of a compound that is named as a salt.
Could you please mark rule met for values of IC50 below 20 nM and rule not met for values at or above it?

Check out these entries, answers already filled in.
INSERT INTO assay_data (compound, class_name) VALUES
  ('CN(C)Cc1nc(C2CC(c3ccc(C(F)(F)F)cc3)CN(C(=O)N3CCOCC3)C2)no1 (single isomer, unassigned) [Example 170, hydrochloride]', 'rule met'),
  ('CC(C)(C)c1csc(C2CC(c3ccc(OC(F)(F)F)cc3)CN(C(=O)N3CCOCC3)C2)n1 (racemic)', 'rule not met'),
  ('COCCc1noc(C2CC(c3ccc(OC(F)(F)F)cc3)CN(C(=O)N3CCOCC3)C2)n1 (single isomer, unassigned)', 'rule met'),
  ('COCCc1noc(C2CC(c3ccc(OC(F)(F)F)cc3)CN(C(=O)N3CCC(O)CC3)C2)n1 (single isomer, unassigned)', 'rule not met'),
  ('CC(C)c1noc(C2CC(c3ccc(OC(F)(F)F)cc3)CN(C(=O)N3CCC(C#N)CC3)C2)n1 (racemic)', 'rule met');

Now for another entry.
Hi there! Is IC50 for CCc1ccc(C2CC(c3nc(-c4cccc(OC)c4)no3)CN(C(=O)N3CCOCC3)C2)cc1 (racemic) below 20 nM, do you know?
rule not met
